- SYSTEM_NAME: IAP (Homo sapiens, UniProt P09923)
- Construct: made in house; host or cells: COS-1 cells, transient expression; dialyzed serum-free conditioned medium
- Sequence (P09923 20-503 limits assumed): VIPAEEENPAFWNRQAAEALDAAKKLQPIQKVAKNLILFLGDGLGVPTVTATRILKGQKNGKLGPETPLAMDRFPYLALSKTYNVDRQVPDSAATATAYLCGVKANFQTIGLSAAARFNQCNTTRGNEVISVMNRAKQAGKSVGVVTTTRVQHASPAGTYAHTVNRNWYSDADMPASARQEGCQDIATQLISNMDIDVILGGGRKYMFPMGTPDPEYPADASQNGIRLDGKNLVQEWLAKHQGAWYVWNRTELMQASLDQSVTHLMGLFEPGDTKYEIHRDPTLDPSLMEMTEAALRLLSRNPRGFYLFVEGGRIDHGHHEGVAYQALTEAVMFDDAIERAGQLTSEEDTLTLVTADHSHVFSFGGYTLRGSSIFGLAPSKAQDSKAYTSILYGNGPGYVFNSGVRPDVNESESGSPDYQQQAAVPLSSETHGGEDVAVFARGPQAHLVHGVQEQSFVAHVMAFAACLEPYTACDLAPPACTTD
- METHOD_NOTES: IAP luminescent assay (CDP-star)
- Format: biochemical
- TEST_CONDITIONS: read-out: Selectivity Panel IC50 IAP
I'd appreciate it if you could supply IC50 values for the items below.

Please state IC50 for every molecule in the list that follows.
1. O=C1C2CC=CCC2C(=O)N1c1n[nH]c(Cc2ccccc2)n1 (centres unmarked)
2. COc1ccc(C)cc1S(=O)(=O)Nc1cccnc1
3. COc1ccc(OC)c(S(=O)(=O)Nc2cnc3ccccc3c2)c1
4. O=C(O)c1cc(-c2ccccc2Cl)[nH]n1
5. Oc1cc(-c2cccc3ccccc23)[nH]n1

Reply:
["0.54 µM", "> 100 µM", "> 100 µM", "44 µM", "> 100 µM"]
